tested target: EPHB4 (Homo sapiens)
Construct: purchased ReactionBiology
Sequence (P54760 16-987): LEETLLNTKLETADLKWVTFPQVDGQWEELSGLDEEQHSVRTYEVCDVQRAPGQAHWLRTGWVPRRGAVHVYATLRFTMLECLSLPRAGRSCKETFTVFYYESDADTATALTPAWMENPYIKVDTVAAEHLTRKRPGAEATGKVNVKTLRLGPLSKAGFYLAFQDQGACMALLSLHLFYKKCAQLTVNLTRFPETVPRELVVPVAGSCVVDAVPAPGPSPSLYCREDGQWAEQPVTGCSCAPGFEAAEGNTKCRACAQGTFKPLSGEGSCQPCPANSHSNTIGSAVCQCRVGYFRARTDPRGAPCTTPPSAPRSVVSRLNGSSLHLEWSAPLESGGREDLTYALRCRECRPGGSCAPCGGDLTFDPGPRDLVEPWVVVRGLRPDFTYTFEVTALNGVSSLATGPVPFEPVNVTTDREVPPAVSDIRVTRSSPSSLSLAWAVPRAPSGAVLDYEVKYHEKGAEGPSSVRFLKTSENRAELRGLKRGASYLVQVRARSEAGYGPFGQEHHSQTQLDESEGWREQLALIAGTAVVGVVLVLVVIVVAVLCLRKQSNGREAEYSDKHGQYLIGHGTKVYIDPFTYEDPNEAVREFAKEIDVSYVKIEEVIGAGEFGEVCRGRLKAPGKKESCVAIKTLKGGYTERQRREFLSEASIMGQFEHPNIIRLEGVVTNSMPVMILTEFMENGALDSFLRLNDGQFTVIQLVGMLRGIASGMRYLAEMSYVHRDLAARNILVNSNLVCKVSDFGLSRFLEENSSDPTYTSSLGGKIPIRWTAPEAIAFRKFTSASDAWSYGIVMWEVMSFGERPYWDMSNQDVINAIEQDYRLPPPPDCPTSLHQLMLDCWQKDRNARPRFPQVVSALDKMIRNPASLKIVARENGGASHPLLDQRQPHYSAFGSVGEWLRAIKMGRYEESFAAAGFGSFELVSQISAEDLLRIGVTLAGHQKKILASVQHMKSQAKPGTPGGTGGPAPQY
measurement protocol: Kinase activity test (ReactionBiology), % enzyme activity relative to DMSO;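 for % Enzyme Activity (relative to DMSO controls), Data 1: EPHB4 was one of ten selected kinases in the screening panel, with enzyme activity expressed as a percentage of DMSO controls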
Assay type: biochemical
study conditions: EPHB4; 1 uM; replicate Data 1; read-out: % Enzyme Activity (relative to DMSO controls), Data 1
Field: remaining activity at 1 µM. Provide a value for each of the compounds that follow.
// return numeric value only (unit: %, not printed)

Query string: Reported remaining activity at 1 µM for Cc1cccc(C)c1OCC(=O)N[C@@H](Cc1ccccc1)[C@@H](O)C[C@H](Cc1ccccc1)NC(=O)[C@H](C(C)C)N1CCCNC1=O [Lopinavir, reference compound] : what is it?
Result string: 95.6

Query string: Reported remaining activity at 1 µM for Nc1ncnc2c1ncn2[C@@H]1O[C@H](CO)[C@@H](O)[C@H]1O [Adenosine, reference compound] : what is it?
Result string: 100

Query string: Reported remaining activity at 1 µM for CC(C)c1nc(CN(C)C(=O)N[C@H](C(=O)N[C@@H](Cc2ccccc2)C[C@H](O)[C@H](Cc2ccccc2)NC(=O)OCc2cncs2)C(C)C)cs1 [Ritonavir, reference compound] : what is it?
Result string: 99.5

====

Field: remaining activity at 10 µM. Provide a value for each of the molecules that follow.
tested target: CK1d (Homo sapiens, UniProt P48730)
Construct: purchased ReactionBiology
Sequence (P48730 whole entry): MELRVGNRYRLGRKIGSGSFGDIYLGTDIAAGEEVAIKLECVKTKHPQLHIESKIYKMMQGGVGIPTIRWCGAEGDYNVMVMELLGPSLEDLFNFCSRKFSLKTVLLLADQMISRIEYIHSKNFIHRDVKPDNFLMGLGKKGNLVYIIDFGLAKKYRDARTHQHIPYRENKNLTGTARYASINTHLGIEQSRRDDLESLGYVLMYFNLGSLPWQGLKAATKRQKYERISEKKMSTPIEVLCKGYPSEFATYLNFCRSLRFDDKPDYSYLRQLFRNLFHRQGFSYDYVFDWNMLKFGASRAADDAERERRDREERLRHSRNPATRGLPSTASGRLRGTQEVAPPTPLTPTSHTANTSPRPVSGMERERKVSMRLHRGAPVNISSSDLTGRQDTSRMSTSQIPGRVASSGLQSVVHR
measurement protocol: Kinase activity test (ReactionBiology), % enzyme activity relative to DMSO
Type: biochemical
study conditions: CK1d; 10 uM; Average; read-out: % Enzyme Activity (relative to DMSO controls), Average
Just so you know, I need the unit written after the number.

Query string: Reported remaining activity at 10 µM for CCCc1nc(C)c2c(=O)[nH]c(-c3cc(S(=O)(=O)N4CCN(CC)CC4)ccc3OCC)nn12 [Vardenafil] : what is it?
Result string: 110%

Query string: Reported remaining activity at 10 µM for CC(C)(C)NC(=O)[C@@H]1C[C@@H]2CCCC[C@@H]2CN1C[C@@H](O)[C@H](Cc1ccccc1)NC(=O)[C@H](CC(N)=O)NC(=O)c1ccc2ccccc2n1 [Saquinavir, reference compound] : what is it?
Result string: 121%

Query string: Reported remaining activity at 10 µM for Cc1cccc(C)c1OCC(=O)N[C@@H](Cc1ccccc1)[C@@H](O)C[C@H](Cc1ccccc1)NC(=O)[C@H](C(C)C)N1CCCNC1=O [Lopinavir, reference compound] : what is it?
Result string: 109%

Query string: Reported remaining activity at 10 µM for NCCCCCC(=O)O [Aminocaproic acid] : what is it?
Result string: 125%

Query string: Reported remaining activity at 10 µM for CCN(CC)Cc1cc(Nc2ccnc3cc(Cl)ccc23)ccc1O [Amodiaquine, reference compound] : what is it?
Result string: 69.1%

Query string: Reported remaining activity at 10 µM for NC(=O)c1cccnc1 [Niacinamide, reference compound] : what is it?
Result string: 101%

Query string: Reported remaining activity at 10 µM for Cc1nc(Nc2ncc(C(=O)Nc3c(C)cccc3Cl)s2)cc(N2CCN(CCO)CC2)n1 [Dasatinib, reference compound] : what is it?
Result string: 92.7%
